The reported numbers originate from PubChem BioAssay (Tox21).

# target_of_assay: Nuclear receptor subfamily 1 group I member 2 (Homo sapiens) (UniProt O75469)
# Sequence (O75469 whole entry, looked up): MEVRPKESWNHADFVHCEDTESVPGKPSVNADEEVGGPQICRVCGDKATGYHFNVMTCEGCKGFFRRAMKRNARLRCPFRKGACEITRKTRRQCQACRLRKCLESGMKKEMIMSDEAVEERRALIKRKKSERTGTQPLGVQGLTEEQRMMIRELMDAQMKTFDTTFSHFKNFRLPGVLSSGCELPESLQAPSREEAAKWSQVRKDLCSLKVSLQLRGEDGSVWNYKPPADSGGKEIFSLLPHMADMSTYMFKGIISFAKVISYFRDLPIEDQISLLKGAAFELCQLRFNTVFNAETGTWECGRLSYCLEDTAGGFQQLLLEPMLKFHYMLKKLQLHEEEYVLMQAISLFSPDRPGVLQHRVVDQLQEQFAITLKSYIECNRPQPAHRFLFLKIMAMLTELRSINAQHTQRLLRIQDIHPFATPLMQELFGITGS
# protocol_description: Human pregnane X receptor (PXR) small molecule agonists, qHTS assay (AID 1346982); further: nearly all actives have a fitted effect of over 35% in size; further: potency means the concentration at half of the fitted maximal effect
# test_settings: PXR-Luc HepG2, CYP3A4 luciferase reporter, 24 h; series mostly up to 92.4 µM
Results filed as inconclusive are left out. Active and inactive are the calls of the source. The call rests on the fitted dose curve; in most records, active means well fitted activation curve with a large enough effect in the repeat runs; inconclusive means weak or mixed curves; inactive means no such curve, though single readings can be large or run the other way.
attribute_measured: Potency

INSERT INTO results (compound, result) VALUES
  ('ClP(Cl)(Cl)(Cl)Cl', 'inactive'),
  ('COC(=O)C(Br)CBr (stereo unspecified)', 'inactive'),
  ('C=CC(=O)OCC(C)O (stereo unspecified)', 'inactive'),
  ('O=[N+]([O-])c1ccccc1CCl', '0.0039 µM (active)'),
  ('O=[N+]([O-])C(Br)(CO)CO', 'inactive'),
  ('CCCN(CCC)c1c([N+](=O)[O-])cc(S(C)(=O)=O)cc1[N+](=O)[O-]', '2.43 µM (active)'),
  ('N#Cc1cc(I)c(O)c(I)c1', '54.5 µM (active)'),
  ('C=CC(=O)OCC(C)C', '48.2 µM (active)'),
  ('CC(=O)C(C)(C)C', 'inactive'),
  ('O=C(C(Cl)(Cl)Cl)C(Cl)(Cl)Cl', 'inactive'),
  ('Sc1ccccc1Cl', 'inactive'),
  ('CCOS(C)(=O)=O', 'inactive'),
  ('CCN(C)N=O', 'inactive'),
  ('O=C(O)c1ccccc1C(=O)Nc1cccc2ccccc12', '38.6 µM (active)'),
  ('O=Cc1ccc(Cl)cc1Cl', 'inactive'),
  ('Clc1cc(Cl)c(Cl)c(Cl)c1', 'inactive'),
  ('N#CCc1ccccc1', 'inactive'),
  ('CC(=O)CCC(C)=O', 'inactive'),
  ('CC1(C)CCC(Cc2ccc(Cl)cc2)C1(O)Cn1cncn1 (stereo unspecified)', '9.69 µM (active)'),
  ('C=CCOC(C)=O', 'inactive'),
  ('Cc1ccc(-c2c(Cl)nc(C#N)n2S(=O)(=O)N(C)C)cc1', '9.68 µM (active)'),
  ('O=S(=O)(O)C(F)(F)C(F)(F)C(F)(F)C(F)(F)F', 'inactive'),
  ('COC(=O)C(C)N(C(=O)Cc1ccccc1)c1c(C)cccc1C (stereo unspecified)', '10.9 µM (active)'),
  ('CCCN(CC1CC1)c1c([N+](=O)[O-])cc(C(F)(F)F)cc1[N+](=O)[O-]', '19.3 µM (active)'),
  ('CC(C)(OO)c1ccccc1', 'inactive'),
  ('Cc1c(F)c(F)c(COC(=O)C2C(/C=C(\Cl)C(F)(F)F)C2(C)C)c(F)c1F (stereo unspecified)', '13.7 µM (active)'),
  ('C=C(C#N)CCC#N', 'inactive'),
  ('O=C(CBr)OCc1ccccc1', 'inactive'),
  ('CC(C)(C)c1cc([N+](=O)[O-])cc([N+](=O)[O-])c1O', '19.3 µM (active)'),
  ('BrCCCCBr', 'inactive'),
  ('NC(=O)C(Cl)(Cl)Cl', 'inactive');

====

# protocol_description: qHTS assay to identify small molecule agonists of the estrogen receptor beta (ER-beta) signaling pathway - cell viability counter screen (AID 1259380); further: nearly all actives have a fitted effect of over 30% in size; further: potency means the concentration at half of the fitted maximal effect
# test_settings: ER-beta-bla HEK293T viability, CellTiter-Glo luminescence, 16 h; series mostly up to 92.4 µM
Results filed as inconclusive are left out. Activity calls are given as the source filed them. Calls follow the shape of the dose curve; as a rule, active = well fitted cell-killing curve with a large enough effect in the repeat runs; inconclusive = weak or mixed curves, or effect the other way; inactive = flat fitted curve, though single readings scatter.
attribute_measured: Potency

INSERT INTO assay_data (compound, result) VALUES
  ('N#Cc1cc(I)c(O)c(I)c1', 'inactive'),
  ('CCOC(=O)CBr', 'inactive'),
  ('C(=NC1CCCCC1)=NC1CCCCC1', 'inactive'),
  ('O=[N+]([O-])c1ccc(F)c([N+](=O)[O-])c1', 'inactive'),
  ('CCCCCC[N+](=O)[O-]', 'inactive'),
  ('CCCN(CCC)c1c([N+](=O)[O-])cc(S(C)(=O)=O)cc1[N+](=O)[O-]', 'inactive'),
  ('O=[N+]([O-])c1ccccc1CCl', 'inactive'),
  ('COc1c(C(C)(C)C)cc([N+](=O)[O-])c(C)c1[N+](=O)[O-]', 'inactive'),
  ('O=[Se]=O', 'inactive'),
  ('CCOC(=O)COc1cc(-c2nn(C)c(OC(F)F)c2Cl)c(F)cc1Cl', 'inactive'),
  ('CO/C=C(/C(=O)OC)c1ccccc1COc1cccc(C(F)(F)F)n1', '4.85 µM (active)'),
  ('Clc1ccc(C(OCCN2CCCCC2)c2ccccc2)cc1 (stereo not drawn)', '18.8 µM (active)'),
  ('CC(=O)C(C)(C)C', 'inactive');
